- testedOn: the molecule itself
- testMethodNotes: SEC

[
  {
    "protein": "DISC1 598-854 C680S/C698S/C762S/C782S/C844S (domain or fragment) GNHFFTAKDLTEEIRSLTSEREGLEGLLSKLLVLSSRNVKKLGSVKEDYNRLRREVEHQETAYETSVKENTMKYMETLKNKLSSCKCPLLGKVWEADLEASRLLIQSLQLQEARGSLSVEDERQMDDLEGAAPPIPPRLHSEDKRKTPLKVLEEFKTHLIPSLHSAGGEQKEESYILSAELGEKSEDIGKKLLYLEDQLHTAIHSHDEDLIQSLRRELQMVKETLQAMILQLQPAKEAGEREAAASSMTAGVHEAQA",
    "binding result": "binds"
  },
  {
    "protein": "DISC1 598-854 C680S/C682S/C684S/C698S/C762S/C782S/C844S (domain or fragment) GNHFFTAKDLTEEIRSLTSEREGLEGLLSKLLVLSSRNVKKLGSVKEDYNRLRREVEHQETAYETSVKENTMKYMETLKNKLSSSKSPLLGKVWEADLEASRLLIQSLQLQEARGSLSVEDERQMDDLEGAAPPIPPRLHSEDKRKTPLKVLEEFKTHLIPSLHSAGGEQKEESYILSAELGEKSEDIGKKLLYLEDQLHTAIHSHDEDLIQSLRRELQMVKETLQAMILQLQPAKEAGEREAAASSMTAGVHEAQA",
    "binding result": "binds"
  }
]
